System: Enterococcus sp.
Test: in vitro antibacterial evaluation, MIC by broth dilution
Assay type: cell-based
Settings: broth dilution, 18 hours at 35° C.; strain ATCC 29212
Assignment: determine reported MIC Enterococcus faecalis (ATCC 29212) for the given compounds.
Enter your answer as a number in µg/mL; do not include the unit.

Request: // returns reported MIC Enterococcus faecalis (ATCC 29212) for input CC(C)=CCCC(C)CC1OCC2OC(OC3C(CO)OC(Oc4ccc(CC5NC(=O)C(C(C)c6ccccc6)NC(=O)CNC(=O)C(CO)NC(=O)C(C(O)C6CNC(=N)N6C6OC(CO)C(O)C(O)C6O)NC(=O)C(C(O)C6CNC(=N)N6)NC5=O)cc4)C(O)C3O)C(O)C(O)C2O1 (stereo not shown) [Example 126]
Result: 8

Request: // returns reported MIC Enterococcus faecalis (ATCC 29212) for input CC(c1ccccc1)C1NC(=O)CNC(=O)C(CO)NC(=O)C(C(O)C2CNC(=N)N2C2OC(CO)C(O)C(O)C2O)NC(=O)C(C(O)C2CNC(=N)N2)NC(=O)C(Cc2ccc(OC3OC(CO)C(OC4OC5COC(c6cccs6)OC5C(O)C4O)C(O)C3O)cc2)NC1=O (stereo not shown) [Example 132]
Result: 8

Request: // returns reported MIC Enterococcus faecalis (ATCC 29212) for input CCC(CC)C1OCC2OC(OC3C(CO)OC(Oc4ccc(CC5NC(=O)C(C(C)c6ccccc6)NC(=O)CNC(=O)C(CO)NC(=O)C(C(O)C6CNC(=N)N6C6OC(CO)C(O)C(O)C6O)NC(=O)C(C(O)C6CNC(=N)N6)NC5=O)cc4)C(O)C3O)C(O)C(O)C2O1 (stereo not shown) [Example 116]
Result: 2

Request: // returns reported MIC Enterococcus faecalis (ATCC 29212) for input CCCCCNC(=O)OCC1OC(OC2C(CO)OC(Oc3ccc(CC4NC(=O)C(C(C)c5ccccc5)NC(=O)CNC(=O)C(CO)NC(=O)C(C(O)C5CNC(=N)N5C5OC(CO)C(O)C(O)C5O)NC(=O)C(C(O)C5CNC(=N)N5)NC4=O)cc3)C(O)C2O)C(O)C(O)C1O (stereo not shown) [Example 251b]
Result: 64

Request: // returns reported MIC Enterococcus faecalis (ATCC 29212) for input CC(C)CC(=O)OCC1OC(OC2C(CO)OC(Oc3ccc(CC4NC(=O)C(Cc5ccccc5)NC(=O)CNC(=O)C(CO)NC(=O)C(C(O)C5CNC(=N)N5C5OC(CO)C(O)C(O)C5O)NC(=O)C(C(O)C5CNC(=N)N5)NC4=O)cc3)C(O)C2O)C(O)C(O)C1O (stereo not shown) [Example 283c]
Result: 128

Request: // returns reported MIC Enterococcus faecalis (ATCC 29212) for input N=C1NCC(C(O)C2NC(=O)C(Cc3ccc(OC4OC(CO)C(OC5OC(CO)C(O)C6OC7(OC56)C5CC6CC(C5)CC7C6)C(O)C4O)cc3)NC(=O)C(CC3CCCCC3)NC(=O)CNC(=O)C(CO)NC(=O)C(C(O)C3CNC(=N)N3C3OC(CO)C(O)C(O)C3O)NC2=O)N1 (stereo not shown) [Example 106a]
Result: 8

Just for reference, patent US6914045B2 is where these values come from.
